assay_info: Oral half-life and peak plasma levels in rat
Assay type: in vivo
experimental_setup: oral
Assign labels as follows, please: Yes for POt½ in Rat below 5 h; No for POt½ in Rat equal to or exceeding 5 h.

Ask: Is the reported POt½ in Rat for `Cc1cc(C)c(NC(=O)c2sccc2S(=O)(=O)Nc2onc(C)c2Cl)c(C)c1C#N` strictly below 5 h?
Reply: Yes

Ask: And the next one, `Cc1cc(C)c(NC(=O)c2sccc2S(=O)(=O)Nc2onc(C)c2Cl)c(C(=O)C(C)C)c1` ?
Reply: No

Ask: And the next one, `CC(=O)c1cc(C)cc(C)c1NC(=O)c1sccc1S(=O)(=O)Nc1onc(C)c1Cl` ?
Reply: No

Ask: And the next one, `Cc1cc(C)c(NC(=O)c2sccc2S(=O)(=O)Nc2onc(C)c2Cl)c(C(=O)C2CC2)c1` ?
Reply: No

Ask: And the next one, `Cc1cc(C)c(NS(C)(=O)=O)c(C)c1NC(=O)c1sccc1S(=O)(=O)Nc1onc(C)c1Cl` ?
Reply: No

Ask: And the next one, `Cc1cc2c(cc1CC(=O)c1sccc1S(=O)(=O)Nc1onc(C)c1Cl)OCO2` ?
Reply: Yes

Ask: And the next one, `Cc1cc(C)c(NC(=O)c2sccc2S(=O)(=O)Nc2onc(C)c2Cl)c(C)c1CC#N` ?
Reply: Yes

Ask: And the next one, `Cc1cc(C)c(NC(=O)c2sccc2S(=O)(=O)Nc2onc(C)c2Cl)c(C)c1CO` ?
Reply: Yes

###

target_system: human ETA receptors (Homo sapiens, UniProt P25101)
Construct: endogenous in cells; host or cells: TE 671 cells (ATCC HTB 139)
Sequence (P25101 21-427): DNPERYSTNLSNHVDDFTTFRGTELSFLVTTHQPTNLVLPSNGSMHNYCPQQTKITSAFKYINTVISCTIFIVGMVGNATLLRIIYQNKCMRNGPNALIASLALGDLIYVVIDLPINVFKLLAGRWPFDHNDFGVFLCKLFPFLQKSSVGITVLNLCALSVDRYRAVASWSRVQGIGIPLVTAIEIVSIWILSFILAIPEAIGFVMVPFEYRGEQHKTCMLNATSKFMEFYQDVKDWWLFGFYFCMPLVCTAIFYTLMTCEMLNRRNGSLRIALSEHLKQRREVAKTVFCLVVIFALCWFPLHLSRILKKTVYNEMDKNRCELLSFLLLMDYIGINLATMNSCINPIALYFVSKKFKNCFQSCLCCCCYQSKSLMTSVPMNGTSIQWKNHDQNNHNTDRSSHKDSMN
assay_info: Binding Test #1: inhibition of 125I-ET-1 binding to ETA receptors (TE 671 cell membranes)
experimental_setup: Table 2; incubation at 4° C.; read-out: ETA
Record form. Attribute: IC50. Fill in for each entry.
Give the value, in units of µM, as a plain number.

Ask: Data request, read-out IC50, for `Cc1c(C(F)(F)F)noc1NS(=O)(=O)c1ccc(-c2ccccc2)cc1`
Reply: 19

Ask: And the next one, `Cc1noc(NS(=O)(=O)c2ccc(-c3ccccc3)cc2)c1Br` ?
Reply: 3.3

Ask: And the next one, `CCCCCCCCCCCCCc1c(C(F)(F)F)noc1NS(=O)(=O)c1ccc(-c2ccccc2)cc1` ?
Reply: 34

Ask: And the next one, `Cc1onc(NS(=O)(=O)c2ccc(-c3ccccc3)cc2)c1Cl` ?
Reply: 3.7

Ask: And the next one, `Cc1noc(NS(=O)(=O)c2ccc(-c3ccccc3)cc2)c1Cl` ?
Reply: 4.93

Ask: And the next one, `Cc1noc(NS(=O)(=O)c2ccc(-c3ccccc3)cc2)c1C` ?
Reply: 9.9

Ask: And the next one, `Cc1noc(NS(=O)(=O)c2ccccc2-c2ccccc2)c1Br` ?
Reply: 0.00127

Ask: And the next one, `Cc1noc(NS(=O)(=O)c2ccccc2-c2ccccc2)c1C` ?
Reply: 0.0083

Ask: And the next one, `Cc1noc(NS(=O)(=O)c2ccccc2-c2ccccc2)c1Cl` ?
Reply: 0.00123

Ask: And the next one, `Cc1onc(NS(=O)(=O)c2ccc(-c3ccccc3)cc2)c1Br` ?
Reply: 6.4

###

target_system: human ETB receptor (Homo sapiens)
Construct: expressed in transfected cells; host or cells: COS7 cells
Sequence (P24530 27-442): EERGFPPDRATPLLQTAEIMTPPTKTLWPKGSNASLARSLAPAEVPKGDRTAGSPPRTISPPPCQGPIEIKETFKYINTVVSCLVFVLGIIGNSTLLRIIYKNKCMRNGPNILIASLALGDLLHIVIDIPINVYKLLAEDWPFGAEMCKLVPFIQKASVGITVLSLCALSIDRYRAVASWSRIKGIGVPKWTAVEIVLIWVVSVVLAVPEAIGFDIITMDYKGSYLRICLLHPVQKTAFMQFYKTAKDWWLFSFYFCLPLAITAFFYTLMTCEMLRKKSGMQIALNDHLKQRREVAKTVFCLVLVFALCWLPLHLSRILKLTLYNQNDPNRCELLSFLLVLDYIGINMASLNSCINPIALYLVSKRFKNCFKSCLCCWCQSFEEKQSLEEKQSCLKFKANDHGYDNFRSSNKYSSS
assay_info: Binding Test #2: inhibition of 125I-ET-1 binding to ETB receptors (transfected COS7 cell membranes)
experimental_setup: Table 2; † incubation at 24° C.; read-out: ETB
Source text: Compounds that are potential endothelin antagonists are identified by testing their ability to compete with ^125I-labeled ET-1 for binding to human ETA receptors or ETB receptors present on isolated cell membranes. The effectiveness of the test compound as an antagonist or agonist of the biological tissue response of endothelin can also be assessed by measuring the effect on endothelin induced contraction of isolated rat thoracic aortic rings. […]
measured_attribute: IC50 (nM)
Give the value, in units of nM, as a plain number.

Ask: Data request, read-out IC50, for `Cc1noc(NS(=O)(=O)c2ccc(-c3ccccc3)cc2)c1Br`
Reply: 1230

Ask: And the next one, `Cc1onc(NS(=O)(=O)c2ccc(-c3ccccc3)cc2)c1Br` ?
Reply: 1780

Ask: And the next one, `CCCCCCCCCCCCCc1c(C(F)(F)F)noc1NS(=O)(=O)c1ccc(-c2ccccc2)cc1` ?
Reply: 950

Ask: And the next one, `Cc1c(C(F)(F)F)noc1NS(=O)(=O)c1ccc(-c2ccccc2)cc1` ?
Reply: 5620

Ask: And the next one, `Cc1noc(NS(=O)(=O)c2ccc(-c3ccccc3)cc2)c1C` ?
Reply: 150

Ask: And the next one, `Cc1onc(NS(=O)(=O)c2ccc(-c3ccccc3)cc2)c1Cl` ?
Reply: 1290
